Target: T1, rat GIP receptor (rat, UniProt P43219 19-455)
T1 sequence (looked up): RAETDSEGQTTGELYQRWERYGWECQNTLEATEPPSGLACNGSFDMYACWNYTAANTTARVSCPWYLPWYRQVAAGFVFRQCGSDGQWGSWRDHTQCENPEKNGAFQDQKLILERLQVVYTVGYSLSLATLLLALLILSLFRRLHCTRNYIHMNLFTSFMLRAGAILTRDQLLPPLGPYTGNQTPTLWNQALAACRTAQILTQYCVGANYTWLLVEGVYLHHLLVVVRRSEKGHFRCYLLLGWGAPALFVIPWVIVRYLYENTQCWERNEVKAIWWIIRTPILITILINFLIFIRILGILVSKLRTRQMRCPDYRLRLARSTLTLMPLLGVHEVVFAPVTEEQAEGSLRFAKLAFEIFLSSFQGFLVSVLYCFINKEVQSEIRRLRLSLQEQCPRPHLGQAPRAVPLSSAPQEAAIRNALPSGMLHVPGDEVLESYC
Test: cell-based or functional assay
property_label: cAMP EC50, Batch 2 (nM)
Numbers only; they are read as nM.

For this binder ( IP292 (Fc fusion) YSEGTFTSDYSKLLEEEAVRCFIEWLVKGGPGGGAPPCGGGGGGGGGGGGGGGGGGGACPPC ), measured cAMP EC50, Batch 2 is 0.186

get_value(item= IP328 (Fc fusion) YSEGTFTSDYSKLLEEEAVRLFIEWLLAGGGGGGGSGGGGSGGGGSGGGGSGGGGSGGGGSGGGGSGGGGSA , readout=cAMP EC50, Batch 2) returns 0.092

Given item IP295 (Fc fusion) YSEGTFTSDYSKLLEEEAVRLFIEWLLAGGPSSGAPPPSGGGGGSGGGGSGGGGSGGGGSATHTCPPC , the value recorded as its cAMP EC50, Batch 2 is 0.0658

Recorded result, IP201 (Fc fusion) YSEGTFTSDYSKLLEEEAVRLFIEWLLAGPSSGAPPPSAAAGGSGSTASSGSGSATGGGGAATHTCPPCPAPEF , cAMP EC50, Batch 2: 0.019

Quick note, cAMP EC50, Batch 2 for IP200 (Fc fusion) YSQGTFTSDYSKILEEEAVRLFIEWLVKGPAAAGGSGSTASSGSGSATGGGGAATHTCPPCPAPEF landed at 0.25
